What follows is literature data on Ki for Adenosine receptor A1 (Rattus norvegicus, UniProt P25099).
- SYSTEM_TESTED: Adenosine receptor A1 (Rattus norvegicus, UniProt P25099)
- Sequence (P25099 whole entry): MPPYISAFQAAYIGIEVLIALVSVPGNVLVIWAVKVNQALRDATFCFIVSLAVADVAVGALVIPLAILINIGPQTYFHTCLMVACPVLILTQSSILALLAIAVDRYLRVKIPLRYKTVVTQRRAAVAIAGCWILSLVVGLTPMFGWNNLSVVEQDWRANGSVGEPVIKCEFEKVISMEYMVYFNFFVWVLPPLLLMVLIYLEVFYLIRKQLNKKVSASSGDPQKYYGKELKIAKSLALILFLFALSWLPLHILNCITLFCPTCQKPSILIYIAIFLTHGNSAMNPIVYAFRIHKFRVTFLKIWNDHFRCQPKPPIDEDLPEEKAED
MEASUREMENT_KIND: Ki (nM)

{"CHEM_SMILES": "Cc1ccc(C(=O)Nc2nc(-c3ccccc3)nc3c2nnn3Cc2ccccc2)cc1", "Ki, nM": 709}
{"CHEM_SMILES": "CN(CCN1CCN(c2ccc(F)cc2F)CC1)c1cc2nc(-c3ccco3)nn2c(N)n1", "Ki, nM": 750}
{"CHEM_SMILES": "Cn1c(=O)c2c(nc3n2CCCN3Cc2cc(C(F)(F)F)ccc2Cl)n(C)c1=O", "Ki, nM": 931}
